Biological target: EGFR (ErbB1) T790M L858R (Homo sapiens (Human), UniProt P00533, L858R/T790M)
Sequence (P00533 25-1210 T790M/L858R): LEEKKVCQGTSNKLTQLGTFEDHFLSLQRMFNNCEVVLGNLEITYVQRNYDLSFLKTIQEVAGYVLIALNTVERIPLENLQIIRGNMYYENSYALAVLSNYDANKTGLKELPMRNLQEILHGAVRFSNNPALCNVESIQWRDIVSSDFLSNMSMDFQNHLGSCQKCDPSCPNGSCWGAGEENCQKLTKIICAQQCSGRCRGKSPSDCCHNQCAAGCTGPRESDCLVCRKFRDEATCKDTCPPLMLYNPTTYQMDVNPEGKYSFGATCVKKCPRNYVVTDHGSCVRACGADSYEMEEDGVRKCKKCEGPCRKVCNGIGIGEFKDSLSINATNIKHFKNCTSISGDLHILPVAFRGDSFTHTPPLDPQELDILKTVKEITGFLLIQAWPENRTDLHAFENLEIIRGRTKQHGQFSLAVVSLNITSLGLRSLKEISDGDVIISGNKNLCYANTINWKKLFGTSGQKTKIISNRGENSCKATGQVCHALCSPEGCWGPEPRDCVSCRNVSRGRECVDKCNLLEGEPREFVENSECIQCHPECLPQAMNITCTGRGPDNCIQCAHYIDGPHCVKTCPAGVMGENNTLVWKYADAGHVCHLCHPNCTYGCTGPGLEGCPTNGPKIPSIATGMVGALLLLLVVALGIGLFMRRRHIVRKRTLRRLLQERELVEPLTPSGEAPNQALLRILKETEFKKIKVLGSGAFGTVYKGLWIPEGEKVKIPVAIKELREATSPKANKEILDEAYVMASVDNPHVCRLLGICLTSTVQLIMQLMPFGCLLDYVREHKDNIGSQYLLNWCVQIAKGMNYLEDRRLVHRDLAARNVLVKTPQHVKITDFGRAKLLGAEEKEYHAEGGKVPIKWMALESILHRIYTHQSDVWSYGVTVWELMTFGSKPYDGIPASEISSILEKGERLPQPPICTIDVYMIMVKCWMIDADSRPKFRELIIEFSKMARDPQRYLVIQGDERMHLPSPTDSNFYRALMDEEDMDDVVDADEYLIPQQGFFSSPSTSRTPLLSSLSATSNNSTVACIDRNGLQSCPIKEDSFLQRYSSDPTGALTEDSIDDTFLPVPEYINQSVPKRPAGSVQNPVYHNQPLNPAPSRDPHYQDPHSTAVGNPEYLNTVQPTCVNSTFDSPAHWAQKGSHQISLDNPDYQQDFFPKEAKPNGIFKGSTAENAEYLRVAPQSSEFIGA
Test: Z'-LYTE kinase inhibition assay, EGFR L858R/T790M
Type: biochemical
Details: read-out: % inhibition against EGFR L858R/T790M (Compound at 0.0137 μM)
Description: Inhibitory activities of compounds against BTK, EGFR and EGFR mutants (EGFR L858R, EGFR T790M, EGFR L858R/T790M), FGFR1, FGFR2, JAK2, JAK3 and KDR were measured by Invitrogen using Z'-LYTE® Method as briefly described in the following. Test Compounds are screened in 1% DMSO (final) in the well. For 10 point titrations, 3-fold serial dilutions are conducted from the starting concentration. […] Finally fluorescence is read by plate reader. […]
Catalogue of compounds with associated inhibition at 0.0137 µM
readout-type: inhibition at 0.0137 µM

>>> result("C=CC(=O)Nc1cccc(-c2cccc3cnc(Nc4ccc(O[C@@H]5CCN(C(C)=O)C5)cc4)nc23)c1")
"< 50%"
>>> result("C=CC(=O)Nc1cccc(-c2c(F)ccc3cnc(Nc4ccc(N5CCN(C)CC5)cc4)nc23)c1")
"> 50%"
>>> result("C=CC(=O)Nc1cccc(-c2cccc3cnc(Nc4ccc(N5CCN(C)C(C(=O)O)C5)cc4)nc23)c1 (stereo not drawn)")
"> 50%"
>>> result("C=CC(=O)Nc1cccc(-c2cccc3cnc(Nc4ccc(N5CCN(C)CC5)nc4)nc23)c1F")
"> 50%"
>>> result("C=CC(=O)Nc1cccc(-c2cccc3cnc(Nc4ccc(N5CCN(CC(C)(C)O)CC5)c(F)c4)nc23)c1")
"> 50%"
>>> result("C=CC(=O)Nc1cccc(-c2cccc3cnc(Nc4ccc(N5CCN(C(C)=O)CC5)cc4)nc23)c1F")
"> 50%"
>>> result("C=CC(=O)Nc1cccc(-c2cccc3cnc(Nc4ccc(N5CCN(S(C)(=O)=O)CC5)cc4)nc23)c1")
"< 50%"
>>> result("C=CC(=O)Nc1cccc(-c2cccc3cnc(Nc4ccc(N5CCN(C)CC5)c(F)c4)nc23)c1")
"> 50%"
>>> result("C=CC(=O)Nc1cccc(-c2c(F)ccc3cnc(Nc4ccc(N5CCN(CCF)CC5)cc4)nc23)c1")
"> 50%"
>>> result("C=CC(=O)Nc1cccc(-c2cccc3cnc(Nc4ccc(N[C@@H]5CCOC5)cc4)nc23)c1")
"< 50%"
>>> result("C=CC(=O)Nc1cccc(-c2cccc3cnc(Nc4ccc(N(C)CCF)cc4)nc23)c1")
"< 50%"
>>> result("C=CC(=O)Nc1cccc(-c2cccc3cnc(Nc4ccc(N5CCN(C(=O)CC)CC5)cc4)nc23)c1")
"> 50%"
>>> result("C=CC(=O)Nc1cccc(-c2cccc3cnc(Nc4ccc(N5CCOC5=O)cc4)nc23)c1")
"< 50%"
>>> result("C=CC(=O)Nc1cccc(-c2cccc3cnc(Nc4ccc(N5CCN(CCF)CC5)cc4)nc23)c1")
"> 50%"
>>> result("C=CC(=O)Nc1cccc(-c2cccc3cnc(Nc4ccc(NC5CCOCC5)cc4)nc23)c1")
"< 50%"

---

Molecular target: EGFR (ErbB1) (Homo sapiens (Human))
Sequence (P00533 25-1210): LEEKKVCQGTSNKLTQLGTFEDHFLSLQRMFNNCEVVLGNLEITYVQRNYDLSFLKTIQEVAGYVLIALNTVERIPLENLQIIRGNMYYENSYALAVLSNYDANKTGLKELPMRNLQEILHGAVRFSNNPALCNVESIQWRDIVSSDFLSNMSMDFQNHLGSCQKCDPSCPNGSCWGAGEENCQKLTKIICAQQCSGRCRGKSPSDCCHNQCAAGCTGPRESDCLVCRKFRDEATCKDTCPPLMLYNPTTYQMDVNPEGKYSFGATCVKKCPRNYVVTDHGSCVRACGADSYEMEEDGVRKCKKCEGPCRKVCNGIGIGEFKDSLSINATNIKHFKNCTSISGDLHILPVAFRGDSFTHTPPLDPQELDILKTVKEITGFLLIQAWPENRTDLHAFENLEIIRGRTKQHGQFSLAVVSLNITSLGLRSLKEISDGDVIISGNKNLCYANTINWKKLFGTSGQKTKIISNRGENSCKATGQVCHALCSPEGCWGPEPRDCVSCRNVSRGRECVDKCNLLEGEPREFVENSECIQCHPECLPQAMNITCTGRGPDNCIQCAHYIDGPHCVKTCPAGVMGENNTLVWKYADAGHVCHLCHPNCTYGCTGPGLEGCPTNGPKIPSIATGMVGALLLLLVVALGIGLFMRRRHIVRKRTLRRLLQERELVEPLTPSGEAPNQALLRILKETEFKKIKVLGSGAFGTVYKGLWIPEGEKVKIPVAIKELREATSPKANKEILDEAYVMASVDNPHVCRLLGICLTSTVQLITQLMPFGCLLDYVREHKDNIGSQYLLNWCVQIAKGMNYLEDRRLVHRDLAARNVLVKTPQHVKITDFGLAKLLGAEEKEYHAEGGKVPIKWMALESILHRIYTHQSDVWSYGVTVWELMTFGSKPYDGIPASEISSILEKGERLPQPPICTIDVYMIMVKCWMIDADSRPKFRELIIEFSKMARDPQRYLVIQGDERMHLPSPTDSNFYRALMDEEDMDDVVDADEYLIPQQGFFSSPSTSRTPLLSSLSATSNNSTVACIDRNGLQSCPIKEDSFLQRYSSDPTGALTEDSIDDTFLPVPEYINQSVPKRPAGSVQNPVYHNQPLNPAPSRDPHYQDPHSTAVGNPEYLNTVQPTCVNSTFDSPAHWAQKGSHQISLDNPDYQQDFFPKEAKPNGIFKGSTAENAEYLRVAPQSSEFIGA
Experiment: Z'-LYTE kinase inhibition assay, EGFR
Type: biochemical
Conditions: read-out: % inhibition against EGFR (Compound at 1 μM)
readout-type: inhibition at 1 µM

>>> result("C=CC(=O)Nc1cccc(-c2cccc3cnc(Nc4ccc(N5CCN(C)CC5)cc4OC)nc23)c1")
"> 50%"
>>> result("C=CC(=O)Nc1cccc(-c2nccc3cnc(Nc4ccc(N5CCOCC5)cc4)nc23)c1")
"< 50%"
>>> result("c1ccc(-c2cccc3cnc(Nc4ccc(N5CCNCC5)cc4)nc23)cc1")
"> 50%"
>>> result("Fc1ccc(OCCN2CCOCC2)cc1-c1cccc2cnc(Nc3ccc(N4CCOCC4)cc3)nc12")
"< 50%"
>>> result("c1ccc(-c2cccc3cnc(Nc4ccc(N5CCOCC5)cc4)nc23)cc1")
"< 50%"
>>> result("C=CC(=O)Nc1cccc(-c2cccc3cnc(Nc4ccc(N5CCN(CCF)CC5)cc4)nc23)c1")
"> 50%"
>>> result("Fc1ccccc1-c1cccc2cnc(Nc3ccc(N4CCNCC4)cc3)nc12")
"> 50%"
>>> result("Clc1cccc(-c2cccc3cnc(Nc4ccc(N5CCOCC5)cc4)nc23)c1")
"< 50%"
>>> result("C=CC(=O)Nc1cccc(-c2cccc3cnc(Nc4ccc(N5CCOCC5)cc4)nc23)c1")
"> 50%"
>>> result("C=CC(=O)Nc1cccc(-c2c(C)ccc3cnc(Nc4ccc(N5CCOCC5)cc4)nc23)c1")
"> 50%"
>>> result("C=CC(=O)Nc1cccc(-c2cccc3cnc(Nc4ccc(N5CCN(C(C)=O)CC5)cc4)nc23)c1")
"> 50%"
>>> result("C=CC(=O)Nc1cccc(-c2cccc3cnc(Nc4ccc(N5CCOCC5)cc4OC)nc23)c1")
"< 50%"
>>> result("Fc1cccc(-c2cccc3cnc(Nc4ccc(N5CCOCC5)cc4)nc23)c1")
"< 50%"
>>> result("Clc1ccccc1-c1cccc2cnc(Nc3ccc(N4CCOCC4)cc3)nc12")
"< 50%"
>>> result("Fc1ccc(Cl)cc1-c1cccc2cnc(Nc3ccc(N4CCOCC4)cc3)nc12")
"< 50%"
>>> result("C=CC(=O)Nc1cccc(-c2c(C)ccc3cnc(Nc4ccc(N5CCN(C)CC5)cc4)nc23)c1")
"> 50%"
>>> result("C=CC(=O)Nc1cccc(-c2cccc3cnc(Nc4ccc(N5CCN(CC)CC5)cc4)nc23)c1")
"> 50%"
>>> result("C=CC(=O)Nc1cccc(-c2nccc3c(N)nc(Nc4ccc(N5CCOCC5)cc4)nc23)c1")
"> 50%"
>>> result("Fc1ccccc1-c1cccc2cnc(Nc3ccc(N4CCOCC4)cc3)nc12")
"< 50%"

---

Biological target: EGFR (ErbB1) T790M (Homo sapiens (Human), UniProt P00533, T790M)
Sequence (P00533 25-1210 T790M): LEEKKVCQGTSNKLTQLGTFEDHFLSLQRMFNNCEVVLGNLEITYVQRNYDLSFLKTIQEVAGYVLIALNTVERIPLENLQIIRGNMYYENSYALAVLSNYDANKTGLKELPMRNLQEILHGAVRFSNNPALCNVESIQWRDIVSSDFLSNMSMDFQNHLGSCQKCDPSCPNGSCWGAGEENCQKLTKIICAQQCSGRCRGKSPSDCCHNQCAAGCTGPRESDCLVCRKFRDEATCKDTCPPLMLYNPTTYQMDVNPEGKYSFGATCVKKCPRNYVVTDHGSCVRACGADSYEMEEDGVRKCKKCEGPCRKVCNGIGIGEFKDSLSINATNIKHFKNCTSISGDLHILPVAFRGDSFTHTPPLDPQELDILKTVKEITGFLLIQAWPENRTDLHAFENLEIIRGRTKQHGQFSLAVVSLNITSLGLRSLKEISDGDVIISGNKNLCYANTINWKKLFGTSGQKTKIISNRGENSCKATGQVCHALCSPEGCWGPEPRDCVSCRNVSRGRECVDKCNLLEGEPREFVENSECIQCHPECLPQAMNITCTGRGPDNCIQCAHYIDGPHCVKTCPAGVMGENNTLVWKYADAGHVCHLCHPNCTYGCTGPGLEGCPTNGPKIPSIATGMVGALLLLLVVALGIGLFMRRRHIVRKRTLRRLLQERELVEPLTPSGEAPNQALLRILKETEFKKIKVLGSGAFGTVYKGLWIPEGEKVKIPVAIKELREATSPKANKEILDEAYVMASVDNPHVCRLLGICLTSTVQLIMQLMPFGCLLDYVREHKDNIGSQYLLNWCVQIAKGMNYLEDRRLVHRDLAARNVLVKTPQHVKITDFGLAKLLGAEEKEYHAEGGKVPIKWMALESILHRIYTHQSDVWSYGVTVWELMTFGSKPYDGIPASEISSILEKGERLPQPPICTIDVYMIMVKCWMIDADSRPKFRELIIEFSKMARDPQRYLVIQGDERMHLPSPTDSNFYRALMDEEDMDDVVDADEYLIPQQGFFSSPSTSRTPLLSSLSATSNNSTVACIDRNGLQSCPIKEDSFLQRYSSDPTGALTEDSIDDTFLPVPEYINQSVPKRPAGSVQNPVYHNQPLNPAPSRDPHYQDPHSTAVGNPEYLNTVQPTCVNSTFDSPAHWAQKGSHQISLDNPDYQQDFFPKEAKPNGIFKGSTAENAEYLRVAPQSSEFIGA
Assay: Z'-LYTE kinase inhibition assay, EGFR T790M
Assay type: biochemical
Conditions: read-out: % inhibition against EGFR T790M (Compound at 1 μM)
Catalogue of compounds with associated inhibition at 1 µM
readout-type: inhibition at 1 µM

>>> result("Fc1ccccc1-c1cccc2cnc(Nc3ccc(N4CCOCC4)cc3)nc12")
"< 50%"
>>> result("Clc1cccc(-c2cccc3cnc(Nc4ccc(N5CCOCC5)cc4)nc23)c1")
"< 50%"
>>> result("C=CC(=O)Nc1cccc(-c2cccc3cnc(Nc4ccc(N5CCOCC5)cc4)nc23)c1")
"> 50%"
>>> result("C=CC(=O)Nc1cccc(-c2cccc3cnc(Nc4ccc(N5CCN(C)CC5)cc4OC)nc23)c1")
"> 50%"
>>> result("Clc1ccccc1-c1cccc2cnc(Nc3ccc(N4CCOCC4)cc3)nc12")
"< 50%"
>>> result("C=CC(=O)Nc1cccc(-c2cccc3cnc(Nc4ccc(N5CCOCC5)cc4OC)nc23)c1")
"> 50%"
>>> result("Fc1cccc(-c2cccc3cnc(Nc4ccc(N5CCOCC5)cc4)nc23)c1")
"< 50%"
>>> result("c1ccc(-c2cccc3cnc(Nc4ccc(N5CCOCC5)cc4)nc23)cc1")
"< 50%"

---

Target: EGFR (ErbB1) T790M L858R (Homo sapiens (Human), UniProt P00533, L858R/T790M)
Experiment: Z'-LYTE kinase inhibition assay, EGFR L858R/T790M
Assay type: biochemical
Conditions: read-out: % inhibition against EGFR L858R/T790M (Compound at 1 μM)
Catalogue of compounds with associated inhibition at 1 µM
readout-type: inhibition at 1 µM

>>> result("C=CC(=O)Nc1cccc(-c2cccc3cnc(Nc4ccc(N5CCN(C)CC5)cc4OC)nc23)c1")
"> 50%"
>>> result("Clc1cccc(-c2cccc3cnc(Nc4ccc(N5CCNCC5)cc4)nc23)c1")
"> 50%"
>>> result("Fc1ccc(Cl)cc1-c1cccc2cnc(Nc3ccc(N4CCNCC4)cc3)nc12")
"> 50%"
>>> result("CCC(=O)Nc1cccc(-c2cccc3cnc(Nc4ccc(N5CCN(C)CC5)cc4)nc23)c1")
"> 50%"
>>> result("C=CC(=O)Nc1cccc(-c2nccc3c(N)nc(Nc4ccc(N5CCOCC5)cc4)nc23)c1")
"< 50%"
>>> result("Clc1ccccc1-c1cccc2cnc(Nc3ccc(N4CCOCC4)cc3)nc12")
"< 50%"
>>> result("c1ccc(-c2cccc3cnc(Nc4ccc(N5CCOCC5)cc4)nc23)cc1")
"> 50%"
>>> result("Fc1ccc(Cl)cc1-c1cccc2cnc(Nc3ccc(N4CCOCC4)cc3)nc12")
"< 50%"
>>> result("Clc1cccc(-c2cccc3cnc(Nc4ccc(N5CCOCC5)cc4)nc23)c1")
"< 50%"
>>> result("C=CC(=O)Nc1cccc(-c2c(C)ccc3cnc(Nc4ccc(N5CCOCC5)cc4)nc23)c1")
"> 50%"
>>> result("c1ccc(-c2cccc3cnc(Nc4ccc(N5CCNCC5)cc4)nc23)cc1")
"> 50%"
>>> result("Fc1cccc(-c2cccc3cnc(Nc4ccc(N5CCOCC5)cc4)nc23)c1")
"< 50%"
>>> result("C=CC(=O)Nc1cccc(-c2cccc3cnc(Nc4ccc(N5CCN(CC)CC5)cc4)nc23)c1")
"> 50%"
>>> result("Fc1ccc(OCCN2CCOCC2)cc1-c1cccc2cnc(Nc3ccc(N4CCOCC4)cc3)nc12")
"< 50%"
>>> result("Fc1ccccc1-c1cccc2cnc(Nc3ccc(N4CCOCC4)cc3)nc12")
"< 50%"
>>> result("C=CC(=O)Nc1cccc(-c2cccc3cnc(Nc4ccc(N5CCOCC5)cc4)nc23)c1")
"> 50%"
>>> result("C=CC(=O)Nc1cccc(-c2cccc3cnc(Nc4ccc(N5CCOCC5)cc4OC)nc23)c1")
"> 50%"
